Biological target: T1, C5a anaphylatoxin chemotactic receptor 1 (C5aR), wild type (human, UniProt P21730 1-350, sulfonated tyrosines (sulfonation detected by anti-sulfotyrosine Western blot; eliminated by the Y11F and Y14F mutations))
T1 construct: human G protein-coupled C5a receptor (C5aR), wild type; also called C5aR^WT; wtC5aR; source: HEK-293S GnTI- cells (BacMam), purified (Ni-NTA, anti-Flag M1 resin, SEC), reconstituted in DOPC/CHS liposomes; not shown: His8, C-terminal, kept
T1 sequence (looked up): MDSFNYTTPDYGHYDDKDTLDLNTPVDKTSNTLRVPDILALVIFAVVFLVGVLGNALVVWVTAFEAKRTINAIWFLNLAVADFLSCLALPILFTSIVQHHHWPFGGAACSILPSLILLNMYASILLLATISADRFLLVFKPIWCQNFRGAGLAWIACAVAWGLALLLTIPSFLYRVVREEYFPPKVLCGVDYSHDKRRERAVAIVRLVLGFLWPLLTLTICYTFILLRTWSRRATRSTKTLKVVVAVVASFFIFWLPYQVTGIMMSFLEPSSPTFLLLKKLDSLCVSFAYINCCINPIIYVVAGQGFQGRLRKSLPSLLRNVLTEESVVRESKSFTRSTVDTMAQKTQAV
Assay: single-molecule force spectroscopy (FD-based AFM); ligand on the AFM tip (PEG27 linker, tris-NTA-Ni2+); receptor in DOPC/CHS liposomes adsorbed on mica; high loading rates only (10^5-10^7 pN/s); Friddle-Noy-de Yoreo fit, Kd calculated from dGbu; 20 mM HEPES, 300 mM NaCl, about 24 °C
Conditions: both partners purified
pKd: −log10 of the molar value.
Endpoint Label: pKd

Record summary for complement C5a anaphylatoxin (ligand, UniProt P01031 678-751, looked up, C5a anaphylatoxin, 74-aa glycoprotein, cut product of complement C5; C-terminal residue R74; numbers count on: the mature C5a; Held on the AFM tip through a PEG27 linker and tris-NTA-Ni2+; also called C5a ligand; endogenous C5a ligand) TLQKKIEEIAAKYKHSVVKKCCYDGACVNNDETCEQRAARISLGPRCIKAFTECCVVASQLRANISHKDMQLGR : reported pKd = ~9.00
